# TGT: GlmU (Mycobacterium tuberculosis)
# Sequence (P9WMN3 2-495): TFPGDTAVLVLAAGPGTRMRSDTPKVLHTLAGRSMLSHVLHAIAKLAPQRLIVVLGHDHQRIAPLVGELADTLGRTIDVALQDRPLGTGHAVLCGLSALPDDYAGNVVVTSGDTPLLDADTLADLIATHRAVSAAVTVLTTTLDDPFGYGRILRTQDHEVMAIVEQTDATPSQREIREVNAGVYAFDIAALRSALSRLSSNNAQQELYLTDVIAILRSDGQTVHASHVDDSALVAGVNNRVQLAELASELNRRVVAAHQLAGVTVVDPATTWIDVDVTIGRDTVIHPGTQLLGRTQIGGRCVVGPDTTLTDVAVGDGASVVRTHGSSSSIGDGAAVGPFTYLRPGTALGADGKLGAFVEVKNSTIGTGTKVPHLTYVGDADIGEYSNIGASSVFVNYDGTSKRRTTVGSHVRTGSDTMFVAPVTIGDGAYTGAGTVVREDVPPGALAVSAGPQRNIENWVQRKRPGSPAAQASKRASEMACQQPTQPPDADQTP
# TEST: […]; double reciprocal plots; […]
# Type: biochemical
VALUE TYPE: IC50 (µM)

O=C(O)Cc1ccc(C(=O)CSc2nccc(-c3cccs3)n2)s1 ... 5.3

Source listed as paper PMC6652808.
